Tested on: NCI-H522 lung
Assay: NCI tumour cell line growth inhibition, 48 h
Measured Property: TGI

Below, 2 molecules whose answers are already recorded.
| Smiles Repr | TGI |
| --- | --- |
| S=C(N1CCN(c2cccc(Cl)c2)CC1)N1CCN(c2cccc(Cl)c2)CC1 | > 100 µM |
| CSc1c(CC(=O)Nc2ccc(Cl)cc2)n(Cc2ccccc2)c2ccccc12 | > 100 µM |

Okay, next one:
INPUT: Bench note: what TGI did CN(C)c1ccc(/C=c2/c3ccccc3n3c2c2cc(F)ccc2[n+]3C)cc1 show?
OUTPUT: > 41.1 µM

* * *

Test system: SF-268 CNS
Experiment: NCI tumour cell line growth inhibition, 48 h
Measured Property: TGI

INPUT: Bench note: what TGI did CC(=O)c1cc(C(=O)c2ccc3c(c2)Sc2ccccc2N3)c2c(C)cccn12 show?
OUTPUT: > 100 µM

INPUT: Bench note: what TGI did O=C(CCc1nnc2s/c(=C\c3ccccc3Cl)c(=O)n12)Nc1cc(Cl)ccc1Cl show?
OUTPUT: > 100 µM

* * *

Test system: HOP-92 NSCLC
Assay: NCI tumour cell line growth inhibition, 48 h
Measured Property: TGI

| Molecule | TGI |
| --- | --- |
| Cc1cccc(C)c1Nc1nc(C)c(C(=O)CC(=O)C(=O)Nc2c(C(C)C)cccc2C(C)C)s1 | > 100 µM |

INPUT: Bench note: what TGI did c1ccc([As]=[As]c2ccccc2)cc1 (stereo not given) show?
OUTPUT: 3.08 µM

INPUT: Bench note: what TGI did COc1ccc(C2C=C(c3ccc(Cl)cc3)N=C3SC=C(C)N32)c(Br)c1 (stereo not given) show?
OUTPUT: 22 µM

INPUT: Bench note: what TGI did O=c1[nH]c(=O)n(C2OC(CO)C(O)C2O)cc1OCC(F)(F)F (stereo not given) show?
OUTPUT: > 100 µM

* * *

System: M14 melanoma
Assay: NCI tumour cell line growth inhibition, 48 h
Where a SMILES comes first, the peptide text is derived from it. The star is where a group is joined. Cbz = O=C(OCc1ccccc1)*; NHNH2 = NN*
Below, each entry is listed with its recorded TGI.

Below, 2 molecules whose answers are already recorded.
| Molecule | Measured Property | Test Value |
| --- | --- | --- |
| CSc1c(CC(=O)Nc2ccc(Cl)cc2)n(Cc2ccccc2)c2ccccc12 | TGI | > 100 µM |
| COc1ccc(N2C(=O)C3c4[nH]c5ccc(F)cc5c4C4CCC(C(C)(C)C)CC4C3C2=O)cc1 (stereo not drawn) | TGI | > 10 µM |

Okay, next one:
INPUT: Bench note: what TGI did CCOC(=O)CCC(NC(=O)OCc1ccccc1)C(=O)NC(CCC(=O)OCC)C(=O)NN (stereo not drawn) (Cbz-Glu(OEt)-Glu(OEt)-NHNH2; configuration not given here) show?
OUTPUT: > 100 µM

* * *

System: COLO 205 colon
Test: NCI tumour cell line growth inhibition, 48 h
Measured Property: TGI

Below, 2 compounds whose answers are already recorded.
| Smiles Repr | TGI |
| --- | --- |
| COc1ccc2[nH]c3c(C)cc([N+](=O)[O-])c(C)c3c2c1 | > 100 µM |
| Cc1cccc2c(N)c3cccc(C(=O)NCC[N+]4(Cc5ccc([N+](=O)[O-])cc5)CCOCC4)c3nc12 | > 100 µM |

Okay, next one:
INPUT: Bench note: what TGI did O=S(=O)(O)c1ccc2c(N=Nc3ccc(Cl)cc3)c(O)ccc2c1 show?
OUTPUT: > 100 µM

* * *

System: MDA-MB-231 breast
Test: NCI tumour cell line growth inhibition, 48 h
Where a SMILES comes first, the peptide text is derived from it. The star is where a group is joined. Cbz = O=C(OCc1ccccc1)*; NHNH2 = NN*
Measured Property: TGI

Below, 4 molecules whose answers are already recorded.
| Molecule | TGI |
| --- | --- |
| CCOC(=O)CCC(NC(=O)OCc1ccccc1)C(=O)NC(CCC(=O)OCC)C(=O)NN (stereo not given) (Cbz-Glu(OEt)-Glu(OEt)-NHNH2; configuration not given here) | > 100 µM |
| COc1cc(-n2ccnc2)cc(OC)c1OC | > 100 µM |
| O=C(Nc1nnc(-c2c(Cl)c(Cl)c(Cl)c(Cl)c2-c2nc3cc(C(=O)c4ccccc4)ccc3[nH]2)o1)c1ccc(Cl)cc1 | > 100 µM |
| CC[C@H](C)C1=C(O)[N@+]2([O-])Oc3ccc(-c4c(O)c(O)c(-c5ccc(O)cc5)c(OC(C)=O)c4OC(C)=O)cc3O[C@]2([C@@H](C)CC)C(=O)N1O | > 50 µM |

Okay, next one:
INPUT: Bench note: what TGI did Cc1nc2[nH]ncn2c(=O)c1CCO show?
OUTPUT: > 10 µM

* * *

Tested on: HL-60(TB) leukemia
Experiment: NCI tumour cell line growth inhibition, 48 h
Measured Property: TGI

Below, 5 compounds whose answers are already recorded.
| Compound | Measured Property | Test Value |
| --- | --- | --- |
| CC[C@H](C)C1=C(O)[N@+]2([O-])Oc3ccc(-c4c(O)c(O)c(-c5ccc(O)cc5)c(OC(C)=O)c4OC(C)=O)cc3O[C@]2([C@@H](C)CC)C(=O)N1O | TGI | > 50 µM |
| Cc1cc(Nc2cc(N3CCN(C)CC3)nc(Sc3ccc(NC(=O)C4CC4)cc3)n2)n[nH]1 | TGI | > 10 µM |
| COc1ccc(-n2c(=O)n(-c3ccccc3)c(=O)n2-c2ccc(OC)cc2)cc1 | TGI | > 100 µM |
| CCOC(=O)c1cc(C2CCN(c3ccccc3)C2=O)c(C(=O)/C=C(/C)N)[nH]1 (configuration not stated) | TGI | > 100 µM |
| O=C1CSC2=NC3=C(CSC/C3=C\c3ccccc3)C(c3ccccc3)N12 (configuration not stated) | TGI | > 100 µM |

INPUT: Bench note: what TGI did COc1ccc(N2C(=O)C3c4[nH]c5ccc(F)cc5c4C4CCC(C(C)(C)C)CC4C3C2=O)cc1 (configuration not stated) show?
OUTPUT: > 10 µM

INPUT: Bench note: what TGI did CCn1c2c(c3ccccc31)C(c1ccccc1)CC1C(=O)N(c3ccccc3)C(=O)C21 (configuration not stated) show?
OUTPUT: > 100 µM

* * *

Below, each entry is listed with its recorded TGI.
Test system: SK-MEL-28 melanoma
Experiment: NCI tumour cell line growth inhibition, 48 h

Below, 3 molecules whose answers are already recorded.
| Molecule | Test System | TGI |
| --- | --- | --- |
| NC1Cc2ccccc2OC1=O (centres undefined) | SK-MEL-28 melanoma | > 100 µM |
| CC(CN(C)C)C(=O)c1ccccc1 (centres undefined) | SK-MEL-28 melanoma | > 56.6 µM |
| NC(=Nc1cccc(Cl)c1)c1ccccc1N | SK-MEL-28 melanoma | > 100 µM |

INPUT: Form: Entry = CC1(C)CC(=O)c2c(nc3c(ccc4ccccc43)c2-c2ccc(NC(=O)CCCCC(=O)Nc3ccc(-c4c5c(nc6c4ccc4ccccc46)CC(C)(C)CC5=O)cc3)cc2)C1 | System = SK-MEL-28 melanoma | TGI = ____
OUTPUT: > 100 µM

* * *

Tested on: SR leukemia
Assay: NCI tumour cell line growth inhibition, 48 h
Measured Property: TGI

Below, 5 molecules whose answers are already recorded.
| Molecule | Test System | Measured Property | Test Value |
| --- | --- | --- | --- |
| CC(C)(C)OC(=O)c1cccnc1/C=N/O | SR leukemia | TGI | > 100 µM |
| CC[C@H](C)C1=C(O)[N@+]2([O-])Oc3ccc(-c4c(O)c(O)c(-c5ccc(O)cc5)c(OC(C)=O)c4OC(C)=O)cc3O[C@]2([C@@H](C)CC)C(=O)N1O | SR leukemia | TGI | > 50 µM |
| C/C=C/COC(=O)CO[N+](=O)[O-] | SR leukemia | TGI | > 100 µM |
| CCn1c2ccccc2c2ccc(C3C(C(=O)OC)=C(C)NC(C)=C3C(=O)OC)cc21 | SR leukemia | TGI | > 100 µM |
| COc1cc(C2C3=C(COC3=O)N(CCO)c3cc4c(cc32)OCO4)cc(OC)c1O (stereo unspecified) | SR leukemia | TGI | > 11.9 µM |

Okay, next one:
INPUT: Bench note: what TGI did COc1cc(NCCN=C(N)NC(N)=NC(C)C)c2ncccc2c1 show?
OUTPUT: > 100 µM

* * *

Below, each entry is listed with its recorded TGI.
Test system: MDA-MB-435
Test: NCI tumour cell line growth inhibition, 48 h

Below, 6 molecules whose answers are already recorded.
| Molecule | Test System | TGI |
| --- | --- | --- |
| Oc1[nH]c2ccccc2c1N=Nc1c(F)c(F)c(F)c(F)c1F | MDA-MB-435 | > 100 µM |
| C#COc1cccc(Nc2ncnc3cc(NC(=O)[C@H](C)Cl)ccc23)c1 | MDA-MB-435 | 4.3 µM |
| COc1ccc2c3c1OC1C34CCN(C)C(C2)C4=CC(I)C1(OC)OC (configuration not stated) | MDA-MB-435 | 15.5 µM |
| CCN(CC)c1ccc2cc(C(=O)Nc3ccc(C)cc3)c(=N)oc2c1 | MDA-MB-435 | > 100 µM |
| Cc1ccc(-c2nc(-c3cn(C)c4ncccc34)cs2)cc1 | MDA-MB-435 | 2.88 µM |
| COc1ccccc1NCc1cccc2c(=O)c3ccc(Cl)cc3oc12 | MDA-MB-435 | > 100 µM |

Okay, next one:
INPUT: Bench note: what TGI did CSCCCNC(=O)c1csc(-c2csc(CCNC(=O)CNC(=O)CNC(=O)OC(C)(C)C)n2)n1 show?
OUTPUT: > 100 µM
